System: RARg:RXRa (NR concentration 270 nM, RXRa partner concentration 90 nM)
MEASUREMENT_PROTOCOL: PBM binding z-score (relative to random genomic background probes); higher = stronger binding; sequences stand for … in GC…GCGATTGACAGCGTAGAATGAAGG
I'd be grateful if you could share measured PBM binding z-score for these entries.
One number for each entry.

Example entries begin here.
Please report the measured PBM binding z-score for ATCGAAAGGTCGATGGTGAGTATACCCACCCGAA
3.25

Please report the measured PBM binding z-score for TCGAGTAGGTTGGGGGCATTCAGAATGGCGTCGA
1.32

Please report the measured PBM binding z-score for GATACAGGGTCAGCTAGAGGCCAAAGTATGGAAA
7.25

Please report the measured PBM binding z-score for ATCTCTAGGTAAGACTCAGTTCAGTCAAGAACGC
0.387

Please report the measured PBM binding z-score for CCTAGTTGGTCAGGAGGTCGCACACCGGATATGA
2.4

Please report the measured PBM binding z-score for CCTAGCAAGCCAGGGTCACTCAAGCATTTCGCTT
2.97

Please report the measured PBM binding z-score for CCTCGGAGGACAACAGGAGGTCAGGGCTGCCAGA
3.63

Please report the measured PBM binding z-score for CGAACTAGGTCATCCAGGACAGTGCATACATTGA
4.04

Give PBM binding z-score for each of the items listed below.
1. CAAACTAGCTCAAGAGGTCAAAGTCCGCTTCCCG
2. CGTCAAAGTTCAACGTAACGTAACAGAAAGCAGC

1: 4.96; 2: 5.52

###

Tested on: VDR homodimer (NR concentration 270 nM)
MEASUREMENT_PROTOCOL: PBM binding z-score (relative to random genomic background probes); higher = stronger binding; sequences stand for … in GC…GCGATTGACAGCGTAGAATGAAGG
READOUT: PBM binding z-score
Give bare numbers.

Example entries begin here.
Please report the measured PBM binding z-score for TCTAATTGGTCACGGAGGTCACACACGACGGGTA
3.23

Please report the measured PBM binding z-score for ATCGAAAGGTCGAGGTGAGTATGGAGAAAGGGAA
0.435

Give PBM binding z-score for each of the items listed below.
1. CCGACTGGGGCCTAAGGTTACCATAAGCCAGCCC
2. TCTATTTGGTCACGGAGGTCACACACGACGGGTA
3. CCTACTGGGGCAAAAAGGTCATTGATGCCGATAA

1. 0.0794
2. 3.22
3. 3.13

Give PBM binding z-score for each of the items listed below.
1. ACTAGTTGGTCAGCTGAGGTGACACACAATTCGG
2. TCTCGGAGCACACGAAAGGTCAGAGCTCGACATC
3. ATATGTAAGTTATCGGGTCATTCAGTTTGCGCAT

1. 0.149
2. -0.387
3. 3.74

Give PBM binding z-score for each of the items listed below.
1. TCATATAGGTAAATGCTAGGTCAAAGTCCGATCT
2. CAAACTAGGTCACGAAAGGTCAAAGGCGAATGAC
3. CCTTACGGGTCGCGAGGTTATAGCACGACGAGCG

1.35
3.38
0.904

###

Tested on: THRa homodimer (NR concentration 90 nM)
MEASUREMENT_PROTOCOL: PBM binding z-score (relative to random genomic background probes); higher = stronger binding; sequences stand for … in GC…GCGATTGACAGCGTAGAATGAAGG
I'd be grateful if you could share measured PBM binding z-score for these entries.
One number for each entry.

Example entries begin here.
Please report the measured PBM binding z-score for GCGACTGGGGCTAAGCAGGTTACCATAAGGTTGG
0.145

Please report the measured PBM binding z-score for CGTGCAAGGTCATAGGAGGTCAGTGAAGACAGAT
2.87

# context switch: different sequence, same PBM binding z-score
Please report the measured PBM binding z-score for TCTCGGAGGACACGAAGTTCAGAGCTTTCCAGAG
0.372
